Origin of values: patent US7820630B2

Target: human SGLT2 (Homo sapiens)
Construct: expressed in transfected cells
Sequence (P31639 1-672): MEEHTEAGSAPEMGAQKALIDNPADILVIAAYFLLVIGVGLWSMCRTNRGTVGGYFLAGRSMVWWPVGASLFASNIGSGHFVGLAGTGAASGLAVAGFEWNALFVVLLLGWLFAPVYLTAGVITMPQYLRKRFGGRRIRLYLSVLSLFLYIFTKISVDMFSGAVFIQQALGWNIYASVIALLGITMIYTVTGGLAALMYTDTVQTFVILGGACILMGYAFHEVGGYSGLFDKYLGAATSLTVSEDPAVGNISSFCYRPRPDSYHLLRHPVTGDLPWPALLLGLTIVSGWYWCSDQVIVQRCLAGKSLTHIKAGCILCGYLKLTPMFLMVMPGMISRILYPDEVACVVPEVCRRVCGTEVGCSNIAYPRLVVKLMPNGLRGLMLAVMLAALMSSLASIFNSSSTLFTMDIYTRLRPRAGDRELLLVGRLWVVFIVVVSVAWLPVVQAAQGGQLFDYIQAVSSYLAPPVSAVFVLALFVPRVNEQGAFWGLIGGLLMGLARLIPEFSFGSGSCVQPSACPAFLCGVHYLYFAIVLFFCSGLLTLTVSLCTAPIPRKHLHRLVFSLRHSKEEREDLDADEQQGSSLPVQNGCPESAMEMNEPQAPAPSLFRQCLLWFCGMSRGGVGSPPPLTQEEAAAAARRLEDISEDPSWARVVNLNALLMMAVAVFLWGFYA
Assay: Cell-based assay for sodium-dependent glucose transport (14C-AMG uptake), CHOK-SGLT2
Conditions: CHO-K1 cells stably expressing human SGLT2; Na-dependent 14C-AMG uptake
Kindly supply the reported IC50 values for the records listed here.
Could you give me the number in nM? Just the number is fine.

What value of IC50 has been reported for the following compound? CC(C)c1ccc(Cc2c[nH]c3cccc(O[C@@H]4O[C@H](CO)[C@@H](O)[C@H](O)[C@H]4O)c23)cc1 [Example 18]
88

Could you share which IC50 value was measured for Cc1ccsc1Cc1c[nH]c2cccc(O[C@@H]3O[C@H](CO)[C@@H](O)[C@H](O)[C@H]3O)c12 [Example 34] ?
5040

Endpoint output: IC50 of OC[C@H]1O[C@@H](Oc2cccc3[nH]cc(Cc4ccc5c(c4)CCO5)c23)[C@H](O)[C@@H](O)[C@@H]1O [Example 30] . Value?
1870

Request the reported IC50 associated with CCc1ccc(Cc2c[nH]c3cccc(O[C@@H]4O[C@H](CO)[C@@H](O)[C@H](O)[C@H]4O)c23)cc1 [Example 11]
24

State the recorded IC50 for this entry: OC[C@H]1O[C@@H](Oc2cccc3[nH]cc(CCc4ccc5c(c4)OCCO5)c23)[C@H](O)[C@@H](O)[C@@H]1O [Example 5]
146

Which IC50 is reported for this compound? OC[C@H]1O[C@@H](Oc2cccc3[nH]cc(Cc4ccc5ccccc5c4)c23)[C@H](O)[C@@H](O)[C@@H]1O [Example 29]
260

What does the record list as IC50 for CCOc1ccc(Cc2c[nH]c3cccc(O[C@@H]4O[C@H](CO)[C@@H](O)[C@H](O)[C@H]4O)c23)cc1 [Example 25] ?
100

For OC[C@H]1O[C@@H](Oc2cccc3[nH]cc(CCc4ccc5ccccc5c4)c23)[C@H](O)[C@@H](O)[C@@H]1O [Example 6] , what is its reported IC50?
149

Find the recorded IC50 belonging to OC[C@H]1O[C@@H](Oc2cccc3[nH]cc(Cc4ccc(-c5ccccc5)cc4)c23)[C@H](O)[C@@H](O)[C@@H]1O [Example 19] and report it.
101

What measured IC50 goes with Cc1ccc(Cc2c[nH]c3cccc(O[C@@H]4O[C@H](CO)[C@@H](O)[C@H](O)[C@H]4O)c23)cc1 [Example 15] ?
53

Recorded IC50 of OC[C@H]1O[C@@H](Oc2cccc3[nH]cc(CCc4ccc5c(c4)CCO5)c23)[C@H](O)[C@@H](O)[C@@H]1O [Example 1] , please.
20

Form field: reported IC50 of CCOc1ccc(CCc2c[nH]c3cccc(O[C@@H]4O[C@H](CO)[C@@H](O)[C@H](O)[C@H]4O)c23)cc1 [Example 8]
183

Consider the compound Cn1cc(CCc2ccc3c(c2)CCO3)c2c(O[C@@H]3O[C@H](CO)[C@@H](O)[C@H](O)[C@H]3O)cccc21 [Example 3] and give its measured IC50.
62

If you can, please state the reported IC50 value of COc1ccc(Cc2cn(C)c3cccc(O[C@@H]4O[C@H](CO)[C@@H](O)[C@H](O)[C@H]4O)c23)cc1 [Example 23] .
1220

Fill blank: measured IC50 of the compound OC[C@H]1O[C@@H](Oc2cccc3[nH]cc(Cc4ccc(-c5ccccc5)c(F)c4)c23)[C@H](O)[C@@H](O)[C@@H]1O [Example 20] is ____.
114
